test system: TRPC4 (transient receptor potential cation channel C4 beta), mouse; experiment: positive allosteric modulators of mouse TRPC4, confirmation, cell-based, second round, Fluo-4, HEK293 TRPC4beta/mu-opioid, 1 µM (AID 2554); conditions: DAMGO EC20, Fluo-4 calcium flux, at 1 µM
Active and inactive are the calls of the source.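 Rule for the calls: active = primary screen hit whose fluorescence ratio, in both repeats, exceeds the weak agonist control mean by 3 SD; inactive = the rest.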
Outcomes: Y (active), N (inactive)

{"columns": ["Compound", "Group Label"],
 "data": [
  ["Oc1c(Br)cc(Br)cc1CN1CCN(Cc2ccccc2)CC1", "N"],
  ["CCC1=Nc2cc(C(=O)N3CCC4(CC3)OCCO4)ccc2Sc2ccc(Br)cc21", "N"],
  ["CN(CCOc1ccc(C=C2C(=O)NC(=O)NC2=O)cc1)c1ccccn1", "N"],
  ["CC(Cc1ccccc1Sc1ccccc1O)N(C)C (stereo unspecified)", "N"],
  ["O=[N+]([O-])c1ccc(N2CCNCC2)cc1N1CCCCCC1", "N"],
  ["O=C(c1cccc(C(F)(F)F)c1)C1CCCN(Cc2ccccc2O)C1 (stereo unspecified)", "N"],
  ["Cc1nc2ccccn2c1P(=S)(N1CCCCC1)N1CCCCC1", "N"],
  ["CCCCN1C(=O)NC(=O)C2(Cc3c(nc4c(C)cccn4c3=O)N3CCc4ccccc4C32)C1=O (stereo unspecified)", "N"],
  ["CN(C)C(CNC(=O)Cc1c(Cl)cccc1Cl)c1ccccc1 (stereo unspecified)", "N"],
  ["CC[C@@H](CO)NC(=O)[C@@H]1C=C2c3cccc4c3c(cn4C)C[C@H]2N(C)C1", "N"],
  ["CCc1n[nH]c(CCN)n1", "N"],
  ["CCN1CCN(Cc2cc(Br)ccc2O)CC1", "Y"],
  ["O=[N+]([O-])c1ccc(N2CCCNCC2)c2ncccc12", "N"],
  ["COc1ccc(C(CNC(=O)CCc2ccsc2)N(C)C)cc1 (stereo unspecified)", "N"],
  ["Cc1ccc(CN2C3CCCC2CC(NC(=S)NCc2ccccc2)C3)cc1 (stereo unspecified)", "N"],
  ["O=C(CN1CCCC1)Nc1ccc(Cl)cc1C(=O)c1ccccc1", "N"],
  ["CC(=O)OC1(c2ccccc2)CCN(C2CCCCC2)CC1C (stereo unspecified)", "N"],
  ["COc1ccc(CNCCc2ccc3c(c2)OCO3)cc1Br", "N"],
  ["Cc1cccc(N=Cc2c(O)n(-c3ccccc3C)c(=O)[nH]c2=O)c1", "N"],
  ["COc1ccc(CCNCc2ccc(SC)cc2)cc1", "N"],
  ["COc1ccc2[nH]cc(CCN(C)C)c2c1", "Y"]
]}

* * *

target: Short transient receptor potential channel 6 (Mus musculus) (UniProt Q61143); assay: activation of mouse TRPC6 channel, confirmation, selectivity assay for TRPC4 activator project, cell-based, HEK293, membrane potential dye, duplicate (AID 434950); details: HEK293 TRPC6, membrane potential fluorescence, at 10 µM
Sequence (Q61143 whole entry, looked up): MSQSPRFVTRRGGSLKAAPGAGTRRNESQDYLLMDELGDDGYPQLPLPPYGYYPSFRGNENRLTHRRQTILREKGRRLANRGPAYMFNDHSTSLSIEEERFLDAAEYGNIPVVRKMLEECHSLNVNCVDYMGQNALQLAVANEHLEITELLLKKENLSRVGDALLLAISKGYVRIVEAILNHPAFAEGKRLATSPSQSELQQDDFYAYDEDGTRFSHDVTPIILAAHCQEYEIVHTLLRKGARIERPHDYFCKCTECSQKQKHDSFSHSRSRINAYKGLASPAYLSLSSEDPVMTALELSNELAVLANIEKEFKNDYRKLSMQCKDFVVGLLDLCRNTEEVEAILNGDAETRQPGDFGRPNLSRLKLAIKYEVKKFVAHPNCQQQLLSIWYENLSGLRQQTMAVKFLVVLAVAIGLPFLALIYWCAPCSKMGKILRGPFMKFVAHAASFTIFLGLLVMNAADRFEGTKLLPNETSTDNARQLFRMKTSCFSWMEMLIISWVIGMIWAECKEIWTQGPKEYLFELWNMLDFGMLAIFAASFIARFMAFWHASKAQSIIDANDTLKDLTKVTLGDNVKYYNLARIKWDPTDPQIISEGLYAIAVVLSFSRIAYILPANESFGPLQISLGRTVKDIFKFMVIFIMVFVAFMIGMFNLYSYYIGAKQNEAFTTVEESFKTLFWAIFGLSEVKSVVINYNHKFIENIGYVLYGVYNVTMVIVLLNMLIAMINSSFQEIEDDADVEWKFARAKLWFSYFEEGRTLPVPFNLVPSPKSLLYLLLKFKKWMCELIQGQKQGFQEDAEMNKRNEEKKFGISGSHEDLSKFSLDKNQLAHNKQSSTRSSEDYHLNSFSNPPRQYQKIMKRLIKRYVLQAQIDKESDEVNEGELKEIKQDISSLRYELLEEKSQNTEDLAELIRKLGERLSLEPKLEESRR
Active and inactive are the calls of the source.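 Rule for the calls: active = membrane potential signal rise above negative control mean plus 3 SD in both duplicates, also active in the earlier TRPC4 screen; inactive = the rest.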
Outcomes: active, inactive

{"columns": ["Compound", "Group Label"],
 "data": [
  ["COc1ccc(OC)c(N2Cc3ccccc3C2=N)c1", "inactive"],
  ["O=[N+]([O-])c1ccc(N2CCNCC2)cc1N1CCCCCC1", "inactive"],
  ["N=c1c[n+](CC23CC4CC(CC(C4)C2)C3)[n-]o1", "active"],
  ["CCN(CC)P(=O)(/C=C(\\Cl)c1ccccc1)/C=C(\\Cl)c1ccccc1", "inactive"],
  ["CCN1CCN(Cc2cc(Br)cc(Br)c2O)CC1", "active"],
  ["c1ccc2oc(N3CCNCC3)nc2c1", "inactive"],
  ["COc1ccc(OC)c(CN2CCCC(C(=O)c3sccc3C)C2)c1 (stereo not drawn)", "inactive"],
  ["CN(C)C1(CNC(=O)c2ccc(Cl)c(S(=O)(=O)NCc3ccco3)c2)CCCCC1", "active"]
]}

meta.source: PubChem BioAssay
